B1: library; numbered along this chain (parent)
chain: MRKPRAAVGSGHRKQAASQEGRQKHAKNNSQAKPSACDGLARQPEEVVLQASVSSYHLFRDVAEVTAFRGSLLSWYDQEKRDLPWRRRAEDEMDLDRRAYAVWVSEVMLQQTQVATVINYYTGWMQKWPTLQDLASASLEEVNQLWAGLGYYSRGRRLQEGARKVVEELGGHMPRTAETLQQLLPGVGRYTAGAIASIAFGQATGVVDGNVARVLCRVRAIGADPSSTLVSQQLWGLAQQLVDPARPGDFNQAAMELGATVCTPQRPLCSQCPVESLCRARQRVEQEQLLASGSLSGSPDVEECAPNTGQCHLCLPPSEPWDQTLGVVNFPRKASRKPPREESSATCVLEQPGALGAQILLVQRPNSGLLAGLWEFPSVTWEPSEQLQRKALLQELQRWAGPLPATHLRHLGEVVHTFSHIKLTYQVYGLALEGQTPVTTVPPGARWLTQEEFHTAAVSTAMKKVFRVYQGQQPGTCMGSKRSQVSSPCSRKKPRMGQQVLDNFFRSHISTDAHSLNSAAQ

Variants of: B1
Assay: 8OG:A repair function score (normalized; synonymous = 0, nonsense = -1) (normalized log-likelihood score); higher = more repair activity (WT-like);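 also: cells sorted at 72 h after reporter transfection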
Settings: with 8OG:A DNA repair reporter (GFP) in HEK-293 MUTYH KO cells
observed.property: 8OG:A repair function score

>  <mutation.name>
E385S

>  <measured.result>
-0.167

$$$$
>  <mutation.name>
S518V

>  <measured.result>
-0.01

$$$$
>  <mutation.name>
A203G

>  <measured.result>
-0.165

$$$$
>  <mutation.name>
A400G

>  <measured.result>
-0.0159

$$$$
>  <mutation.name>
P185V

>  <measured.result>
-0.299

$$$$
>  <mutation.name>
Q182L

>  <measured.result>
-0.0117

$$$$
>  <mutation.name>
L40R

>  <measured.result>
0.0698

$$$$
>  <mutation.name>
R42G

>  <measured.result>
0.0112

$$$$
>  <mutation.name>
Q450P

>  <measured.result>
-0.118

$$$$
>  <mutation.name>
G123P

>  <measured.result>
0.0736

$$$$
>  <mutation.name>
A305W

>  <measured.result>
-0.0242

$$$$
>  <mutation.name>
Q286E

>  <measured.result>
-0.0273

$$$$
>  <mutation.name>
R98W

>  <measured.result>
-0.0663

$$$$
>  <mutation.name>
V214R

>  <measured.result>
-1.01

$$$$
>  <mutation.name>
R2N

>  <measured.result>
0.108

$$$$
>  <mutation.name>
A431V

>  <measured.result>
-0.0559

$$$$
>  <mutation.name>
P34T

>  <measured.result>
-0.0245

$$$$
>  <mutation.name>
P338V

>  <measured.result>
-0.0391

$$$$
